Just for reference, the supplement of paper PMC6555819 is where these values come from.

# System: RARg homodimer (NR concentration 270 nM)
# experimentDescription: PBM binding z-score (relative to random genomic background probes); higher = stronger binding; sequences stand for … in GC…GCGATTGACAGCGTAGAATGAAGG
assayEndpoint: PBM binding z-score
Answer with a number only.

// worked examples, PBM binding z-score included
>>> df
                         sequencetext  numericvalue
0  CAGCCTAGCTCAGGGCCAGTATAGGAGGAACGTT        -0.422
1  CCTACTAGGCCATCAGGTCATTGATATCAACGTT          2.56
2  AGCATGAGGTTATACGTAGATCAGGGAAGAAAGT           1.3
3  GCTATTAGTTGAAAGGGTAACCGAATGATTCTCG         0.407
4  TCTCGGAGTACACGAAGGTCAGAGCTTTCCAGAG          2.29

Problem: Need PBM binding z-score, item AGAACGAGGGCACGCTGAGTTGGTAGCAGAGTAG
Solution: 2.37

Problem: Need PBM binding z-score, item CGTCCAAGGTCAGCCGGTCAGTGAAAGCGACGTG
Solution: 6.43

###

# Tested on: THRa:RXRa (NR concentration 90 nM, RXRa partner concentration 90 nM)
# experimentDescription: PBM binding z-score (relative to random genomic background probes); higher = stronger binding; sequences stand for … in GC…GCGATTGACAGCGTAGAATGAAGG
sequences and their reported PBM binding z-score
Answer with a number only.

In [3]: df
Out[3]:
                         sequencetext        assayendpoint  numericvalue
0  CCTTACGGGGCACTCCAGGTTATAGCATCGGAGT  PBM binding z-score          3.58
1  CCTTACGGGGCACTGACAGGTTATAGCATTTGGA  PBM binding z-score         0.141
2  TCTTGTAGATCAAGCAGGTTAAGATAGCCTGAGT  PBM binding z-score         0.324
3  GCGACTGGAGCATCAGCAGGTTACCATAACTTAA  PBM binding z-score         0.179
4  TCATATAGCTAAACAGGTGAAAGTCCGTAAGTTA  PBM binding z-score         0.318

Problem: Need PBM binding z-score, item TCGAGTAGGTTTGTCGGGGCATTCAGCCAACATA
Solution: 0.462

Problem: Need PBM binding z-score, item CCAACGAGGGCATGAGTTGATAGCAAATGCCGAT
Solution: 1.01

Problem: Need PBM binding z-score, item GCAGACAGGTTAAACGCAGGTAACTCAGGGTGGC
Solution: 2.06

Problem: Need PBM binding z-score, item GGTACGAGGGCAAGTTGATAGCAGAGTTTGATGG
Solution: 1.39

Problem: Need PBM binding z-score, item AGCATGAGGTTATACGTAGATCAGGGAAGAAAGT
Solution: 2.11

###

# Tested on: PPARa:RXRa (NR concentration 270 nM, RXRa partner concentration 90 nM)
# experimentDescription: PBM binding z-score (relative to random genomic background probes); higher = stronger binding; sequences stand for … in GC…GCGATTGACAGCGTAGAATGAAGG
sequences and their reported PBM binding z-score

// worked examples, PBM binding z-score included
In [3]: df
Out[3]:
                         sequencetext                                testsystem  result
0  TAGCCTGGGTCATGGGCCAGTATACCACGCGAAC  PPARa:RXRa (NR concentration 270 nM, RXRa partner concentration 90 nM)    4.14
1  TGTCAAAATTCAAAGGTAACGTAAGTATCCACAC  PPARa:RXRa (NR concentration 270 nM, RXRa partner concentration 90 nM)    1.13
2  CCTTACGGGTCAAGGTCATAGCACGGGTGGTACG  PPARa:RXRa (NR concentration 270 nM, RXRa partner concentration 90 nM)    5.78
3  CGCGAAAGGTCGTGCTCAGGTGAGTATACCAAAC  PPARa:RXRa (NR concentration 270 nM, RXRa partner concentration 90 nM)    4.89
4  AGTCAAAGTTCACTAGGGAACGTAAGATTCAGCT  PPARa:RXRa (NR concentration 270 nM, RXRa partner concentration 90 nM)    4.19

Note: attention shifts to another entry.
Problem: Need PBM binding z-score, item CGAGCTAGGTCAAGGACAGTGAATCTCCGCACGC
Solution: 3.06
